# SYSTEM_NAME: Thromboxane-A synthase (Homo sapiens)
# Sequence (P24557 whole entry): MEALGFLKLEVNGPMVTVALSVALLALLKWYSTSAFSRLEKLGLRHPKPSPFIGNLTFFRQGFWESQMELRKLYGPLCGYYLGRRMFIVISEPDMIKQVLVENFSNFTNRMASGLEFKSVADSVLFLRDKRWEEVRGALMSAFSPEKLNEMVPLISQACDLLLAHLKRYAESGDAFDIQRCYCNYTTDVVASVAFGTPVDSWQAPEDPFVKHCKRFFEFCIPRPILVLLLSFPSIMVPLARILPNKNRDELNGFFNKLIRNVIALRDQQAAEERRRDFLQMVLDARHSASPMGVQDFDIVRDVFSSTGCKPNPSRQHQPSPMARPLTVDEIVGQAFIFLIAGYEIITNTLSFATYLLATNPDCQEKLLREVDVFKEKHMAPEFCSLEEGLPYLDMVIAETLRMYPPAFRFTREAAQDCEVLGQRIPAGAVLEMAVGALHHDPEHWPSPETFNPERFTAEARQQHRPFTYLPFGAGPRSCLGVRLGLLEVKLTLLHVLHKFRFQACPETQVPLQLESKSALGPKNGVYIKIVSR
# EXPERIMENT_SUMMARY: Compound was tested for the ability to inhibit human platelets microsomal Thromboxane A2 synthase
pIC50: −log10 of the molar value.
READOUT_LABEL: pIC50

CHEMICAL_SMILES | SYSTEM_NAME | RECORDED_RESULT
Cc1c(Cc2cccnc2)c2cc(CCC(=O)O)ccc2n1CCNS(=O)(=O)c1ccc(F)cc1 | Thromboxane-A synthase (Homo sapiens) | 7.21
Cc1[nH]c2ccc(CCC(=O)O)cc2c1Cc1ccncc1 | Thromboxane-A synthase (Homo sapiens) | 7.66
Cc1c(Cn2ccnc2)n(CCNS(=O)(=O)c2ccc(F)cc2)c2ccc(C(=O)O)cc12 | Thromboxane-A synthase (Homo sapiens) | 7.70
Cc1c(Cn2ccnc2)n(CCNS(=O)(=O)c2ccc(F)cc2)c2ccc(CCC(=O)O)cc12 | Thromboxane-A synthase (Homo sapiens) | 6.87
Cc1c(Cn2ccnc2)n(CCCCNS(=O)(=O)c2ccc(F)cc2)c2ccc(C(=O)O)cc12 | Thromboxane-A synthase (Homo sapiens) | 7.41
Cc1c(Cc2ccncc2)c2cc(CCC(=O)O)ccc2n1CCNS(=O)(=O)c1ccc(F)cc1 | Thromboxane-A synthase (Homo sapiens) | 7.11

src = ChEMBL document CHEMBL1128103
